target.entity: Receptor tyrosine-protein kinase erbB-4 (Homo sapiens);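 also: values are averaged percent inhibition of ERBB4 kinase activity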
test.context: at 0.1 µM
assay.metric: inhibition (%)
One number for each entry, in %.

Reference set (2 entries):
C[C@@H](Oc1cc(-n2cnc3ccc(OCC4CCN(C)CC4)cc32)sc1C(N)=O)c1ccccc1C(F)(F)F | -5.11
COc1ccc2ncnc(Nc3ccc(OCc4ccccc4)cc3)c2c1 | 56.2

Hi, could you look up inhibition for each item in my list?
1. O=C1Nc2ccc(-c3cccnc3)cc2C1=Cc1cc(Br)c(O)c(Br)c1
2. FC(F)(F)c1ccc(-c2nn3ncccc3c2-c2ccnc(Nc3ccc4c(c3)OCCO4)n2)cc1
3. CN(C)CCCn1c(-c2nonc2N)nc2cnccc21

[9.94, 6.46, 17.3]

* * *

I'd be grateful if you could share measured inhibition for these entries.
target.entity: Maternal embryonic leucine zipper kinase (Homo sapiens);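 also: reported figure is the mean percent inhibition of MELK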
test.context: at 0.1 µM
One number for each entry, in %.

Reference set (4 entries):
NS(=O)(=O)c1ccc(-c2cc3ccncc3cc2OCc2ccccc2)cc1 | 1.24
Cc1ccc2c(c1)/C(=N/Nc1ccc(S(N)(=O)=O)cc1)C(=O)N2 | -0.41
CCS(=O)(=O)c1ccc(OC)c(Nc2ncc(-c3cccc(OC)c3)o2)c1 | 2.89
Cc1nc(-c2ccccc2)n2nc(NCCCN3CCOCC3)ncc12 | 1.4

Hi there! I need inhibition for each item below, if you can.
1. CC(C)c1ccc(Nc2nccc(-c3cnn4ncccc34)n2)cc1
2. Nc1nccc(C#Cc2cncnc2Nc2ccc(OCc3cccc(F)c3)c(Cl)c2)n1
3. NC(=O)c1cccc(Nc2nccc(Nc3cccc(F)c3)n2)c1
4. CN(C)CCCn1c(-c2nonc2N)nc2cnccc21
5. CC(C)c1ccc2c(c1)NC(=O)/C2=N/Nc1ccc(S(N)(=O)=O)cc1
6. COc1cc(/C=N/Nc2ncnc3c2cnn3C(C)C)ccc1O
7. COc1ccc2ncnc(Nc3ccc(OCc4ccccc4)cc3)c2c1

5.96
2.92
-2.04
6.89
0.88
26.7
-0.28

Look at each compound and report its inhibition.
1. CCn1c(-c2nonc2N)nc2c(C#CC(C)(C)O)nc(OCCNC)cc21
2. Cc1cc(O)cc(C)c1/C=C/c1cncc(C(=O)N(C)C)c1
3. NS(=O)(=O)c1ccc(Nc2cc(-c3cccc(O)c3)n[nH]2)cc1
4. FC(F)(F)c1ccc(-c2nn3ncccc3c2-c2ccnc(Nc3ccc4c(c3)OCCO4)n2)cc1

17.5
3.84
4.37
-0.41

Please report inhibition for every entry that follows.
1. ON=C1CCc2cc(-c3nc(C4CCNCC4)[nH]c3-c3ccncc3)ccc21
2. NS(=O)(=O)c1cccc(-c2cc3ccncc3cc2OCc2ccccc2)c1
3. Cc1ccc(O)cc1Nc1ccnc2ccc(S(C)(=O)=O)cc12

1. -0.02
2. 4.44
3. 4.23

What inhibition appears in the records for this compound with Maternal embryonic leucine zipper kinase (Homo sapiens)? `O=S(=O)(CCOCc1ccc(-c2ccc3ncnc(Nc4ccc(OCc5cccc(F)c5)c(Cl)c4)c3c2)o1)c1ccccc1`
3.07

* * *

For each entry below, report its inhibition value.
target.entity: Epidermal growth factor receptor (Homo sapiens) (UniProt P00533)
Sequence (P00533 whole entry): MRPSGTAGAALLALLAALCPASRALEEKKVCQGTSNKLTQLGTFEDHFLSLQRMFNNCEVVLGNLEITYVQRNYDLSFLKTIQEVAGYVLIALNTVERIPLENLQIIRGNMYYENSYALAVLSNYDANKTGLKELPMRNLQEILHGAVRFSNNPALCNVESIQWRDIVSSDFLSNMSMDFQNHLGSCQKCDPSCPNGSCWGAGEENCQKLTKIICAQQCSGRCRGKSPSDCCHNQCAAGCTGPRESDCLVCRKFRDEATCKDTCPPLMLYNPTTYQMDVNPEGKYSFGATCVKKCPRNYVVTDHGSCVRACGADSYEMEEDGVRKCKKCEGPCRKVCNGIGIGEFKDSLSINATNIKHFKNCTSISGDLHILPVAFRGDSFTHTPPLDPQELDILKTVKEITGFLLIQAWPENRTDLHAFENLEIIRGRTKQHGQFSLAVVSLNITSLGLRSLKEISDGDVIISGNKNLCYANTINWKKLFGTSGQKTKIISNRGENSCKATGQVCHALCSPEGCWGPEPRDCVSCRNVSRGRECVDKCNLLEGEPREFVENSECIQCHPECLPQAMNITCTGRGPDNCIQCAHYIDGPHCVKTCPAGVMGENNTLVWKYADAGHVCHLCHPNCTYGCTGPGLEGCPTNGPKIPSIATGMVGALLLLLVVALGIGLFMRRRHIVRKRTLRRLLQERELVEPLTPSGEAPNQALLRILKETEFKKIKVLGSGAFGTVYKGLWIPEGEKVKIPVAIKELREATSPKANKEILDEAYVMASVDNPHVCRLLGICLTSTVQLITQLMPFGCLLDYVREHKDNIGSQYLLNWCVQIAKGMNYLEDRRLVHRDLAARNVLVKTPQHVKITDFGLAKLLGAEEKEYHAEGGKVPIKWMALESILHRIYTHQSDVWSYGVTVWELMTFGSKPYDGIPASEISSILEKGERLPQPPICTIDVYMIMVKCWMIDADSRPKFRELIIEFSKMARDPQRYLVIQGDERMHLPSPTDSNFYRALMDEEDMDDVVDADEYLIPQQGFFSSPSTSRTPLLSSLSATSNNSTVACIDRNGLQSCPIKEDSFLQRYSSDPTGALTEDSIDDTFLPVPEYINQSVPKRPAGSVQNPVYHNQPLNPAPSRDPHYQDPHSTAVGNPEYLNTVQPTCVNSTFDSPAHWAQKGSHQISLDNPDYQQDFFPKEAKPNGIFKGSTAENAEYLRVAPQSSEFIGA
test.context: at 0.1 µM
Description: GSK_PKIS: EGFR mean inhibition at 0.1 uM [Nanosyn]

Examples with answers:
Cc1ccc(C(=O)NC2CC2)cc1-c1ccc2[nH]ncc2c1 | -1.17%
CCS(=O)(=O)c1ccc(OC)c(Nc2nccc(N(C)c3ccc4c(C)n[nH]c4c3)n2)c1 | 7.37%
c1ccc(Cc2nc3ccc(Nc4ncnc5ccccc45)cc3[nH]2)cc1 | 24.3%
Cc1ccc(NC(=O)CC2CC2)cc1-c1ccc(C(=O)NCC2CC2)cc1 | 0.19%
CC(C)c1ccc(Nc2nccc(-c3cnn4ncccc34)n2)cc1 | 4.49%

Return reported inhibition values for all items listed beneath this line.
1. O=C(Nc1ccc(Oc2ccc3[nH]c(NC(=O)c4ccco4)nc3c2)cc1)Nc1cc(C(F)(F)F)ccc1F
2. Nc1nccc(-c2c(-c3ccc(F)cc3)nn3cc(C(F)(F)F)ccc23)n1
3. Nc1nccc(-c2c(-c3ccc(F)cc3)ncn2CCCN2CCOCC2)n1
4. Cc1ccc2c(-c3ccnc(Nc4cccc(C(F)(F)F)c4)n3)c(-c3ccccc3)nn2n1
5. NS(=O)(=O)c1ccc(NC=C2C(=O)Nc3ccc4ncsc4c32)cc1
6. C[C@@H](Oc1cc(-n2cnc3ccc(OCC4CCN(C)CC4)cc32)sc1C(N)=O)c1ccccc1C(F)(F)F
7. FC(F)(F)c1ccc(-c2nn3ncccc3c2-c2ccnc(Nc3ccc4c(c3)OCCO4)n2)cc1
8. Cc1ccc2c(-c3ccnc(Nc4ccc5c(c4)OCCO5)n3)c(-c3ccc(C(F)(F)F)cc3)nn2n1

-1.7%
-0.27%
-0.84%
28.9%
0.01%
2.6%
6.78%
-0.94%

Would you mind giving inhibition for every compound in the list below?
1. NC(=O)c1cccc(Nc2nccc(Nc3cccc(F)c3)n2)c1
2. CCCN1CCCC(c2ccc(Nc3nc(Nc4cc(F)ccc4C(N)=O)c4cc[nH]c4n3)c(OC)c2)C1 (stereo unspecified)
3. N#Cc1c(NC(=O)c2ccccc2F)sc2c1CCCC2

1.6%
7.23%
2.1%

* * *

target.entity: Ribosomal protein S6 kinase alpha-6 (Homo sapiens);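 also: each value is a mean inhibition of RSK4 from a GSK PKIS panel screen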
test.context: at 1 µM
assay.metric: inhibition (%)
Numbers only, in %.

COc1cc2ncnc(Nc3ccc4c(cnn4Cc4ccccc4)c3)c2cc1OC | 1.92
CN(C)c1cc2c(Nc3ccc4c(cnn4Cc4ccccc4)c3)ncnc2cn1 | 1.71
N#Cc1cccc(Nc2nccc(-c3cnn4ncccc34)n2)c1 | 8.8
COc1cc(/C=N/Nc2ncnc3c2cnn3C(C)C)ccc1O | 3.17
CCn1c(-c2nonc2N)nc2ccc(F)cc21 | 3.11

Value sought for every listed compound: inhibition.
1. COc1cc2ncn(-c3cc(OCc4ccccc4S(C)(=O)=O)c(C#N)s3)c2cc1OC
2. FC(F)(F)c1ccc(-c2nn3ncccc3c2-c2ccnc(Nc3ccc4c(c3)OCCO4)n2)cc1
3. NC(=O)c1sc(-n2cnc3ccccc32)cc1OCc1ccccc1Br
4. Cc1cc(O)cc(C)c1/C=C/c1cncc(C(=O)N(C)C)c1
5. O=C1Nc2ccccc2/C1=C/Nc1ccc2[nH]c(=O)[nH]c2c1
6. Cc1cc(Cl)cc2c1NC(=O)C2=NNc1ccc(S(N)(=O)=O)cc1
7. COc1ccc2ncnc(Nc3ccc(OCc4ccccc4)cc3)c2c1

1. 16.4
2. 0.72
3. 5.17
4. 1.77
5. 16.3
6. 1.2
7. 0.55

* * *

target.entity: Fibroblast growth factor receptor 3 (Homo sapiens);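 also: each value is a mean percent inhibition of FGFR3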
test.context: at 0.1 µM
True means recorded inhibition is 2% or above; False means it is below 2%.

Completed entries (count: 4):
O=C1Nc2ccc(-c3cccnc3)cc2C1=Cc1cc(Br)c(O)c(Br)c1 | True
COc1cc(Nc2nccc(-c3cnn4ncccc34)n2)cc(OC)c1 | True
C[C@@H](Oc1cc(-n2cnc3ccc(OC[C@@H](O)CO)cc32)sc1C(N)=O)c1ccccc1Cl | False
Cc1ccc2c(-c3ccnc(Nc4cccc(C(F)(F)F)c4)n3)c(-c3ccccc3)nn2n1 | True

Continue with the next compound.
Does `CS(=O)(=O)Nc1cccc(-c2ccc3c(NC(=O)C4CC4)n[nH]c3c2)c1` have a reported inhibition of at least 2%?
False

* * *

target.entity: Cyclin-dependent kinase 6 (Homo sapiens);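 also: mean percent inhibition of CDK6 complexed with cyclin D3, from the GSK PKIS kinase inhibitor screen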
test.context: at 0.1 µM
assay.metric: inhibition (%)
Give bare numbers, in %.

Examples with their reported inhibition follow.
CN(c1ccc(NC(=O)Nc2ccc(OC(F)(F)F)cc2)cc1)c1ccnc(Nc2cccc(S(N)(=O)=O)c2)n1 | 2.09
CS(=O)(=O)CCNCc1nc(-c2ccc3ncnc(Nc4ccc(OCc5cccc(C(F)(F)F)c5)cc4)c3c2)cs1 | -2.37

Could you report inhibition for every entry in the following list?
1. N#Cc1cccc(Nc2nccc(-c3cnn4ncccc34)n2)c1
2. CCS(=O)(=O)c1ccc(OC)c(Nc2nccc(N(C)c3ccc4c(C)n[nH]c4c3)n2)c1
3. CCCN1CCCC(c2ccc(Nc3nc(Nc4cc(F)ccc4C(N)=O)c4cc[nH]c4n3)c(OC)c2)C1 (stereo not given)

1: 61.9; 2: -0.16; 3: -2.09

* * *

target.entity: Serine/threonine-protein kinase Chk1 (Homo sapiens);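 also: reported figure is the mean percent inhibition of CHEK1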
test.context: at 0.1 µM
Give inhibition for every item shown.
Answers are plain numbers, in %.

Hi there! I need inhibition for each item below, if you can.
1. Cc1ccc(O)cc1Nc1ccnc2ccc(S(C)(=O)=O)cc12
2. ON=C1CCc2cc(-c3nc(C4CCNCC4)[nH]c3-c3ccncc3)ccc21
3. NS(=O)(=O)c1ccc(N/N=C2\C(=O)Nc3ccc(Cl)cc32)cc1
4. Nc1ccc(C#Cc2cncnc2Nc2ccc(OCc3cccc(F)c3)c(Cl)c2)cc1
5. Cc1ccc(Nc2ccnc(Nc3cccc(C(N)=O)c3)n2)cc1O
6. CN(C)C(=O)O[C@H]1CN[C@H](C#Cc2cc3ncnc(Nc4ccc(OCc5cccc(F)c5)c(Cl)c4)c3s2)C1

[8.75, 0.67, -3.35, 0.65, 1, 0.86]

* * *

target.entity: Mitogen-activated protein kinase 12 (Homo sapiens)
Sequence (whole entry): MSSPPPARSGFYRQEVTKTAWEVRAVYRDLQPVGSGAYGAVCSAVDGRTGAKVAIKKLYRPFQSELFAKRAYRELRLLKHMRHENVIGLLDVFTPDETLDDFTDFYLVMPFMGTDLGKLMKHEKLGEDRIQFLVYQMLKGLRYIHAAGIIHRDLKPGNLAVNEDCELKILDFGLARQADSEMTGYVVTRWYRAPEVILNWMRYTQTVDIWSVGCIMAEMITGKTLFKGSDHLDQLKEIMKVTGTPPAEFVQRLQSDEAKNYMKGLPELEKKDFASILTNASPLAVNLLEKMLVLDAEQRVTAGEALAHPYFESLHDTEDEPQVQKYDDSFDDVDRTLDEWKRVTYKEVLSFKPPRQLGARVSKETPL
test.context: at 0.1 µM
Description: GSK_PKIS: P38gamma mean inhibition at 0.1 uM [Nanosyn]
Can you tell me inhibition for the items I'm about to list?
One number for each entry, in %.

Example entries begin here.
CN(C)CCCn1c(-c2nonc2N)nc2cnccc21 | 3.33
COC(=O)Nc1nc2cc(Oc3ccc(NC(=O)Nc4cccc(Br)c4)cc3)ccc2[nH]1 | 2.07
NC(=O)c1cccc(Nc2nccc(Nc3cccc(F)c3)n2)c1 | 1.16
CN(C)C(=O)O[C@H]1CN[C@H](C#Cc2cc3ncnc(Nc4ccc(OCc5cccc(F)c5)c(Cl)c4)c3s2)C1 | 0.18
COc1cc2ncnc(Nc3ccc4c(cnn4Cc4ccccc4)c3)c2cc1OC | 2.87
CN1CCN(C(=O)c2ccc(NC(=O)Nc3ccc(N(C)c4ccnc(Nc5ccc(CS(C)(=O)=O)cc5)n4)cc3)cc2)CC1 | 1.54
Cc1cc(-c2ccccn2)cc(C)c1/C=C/c1cncc(-c2nn[nH]n2)c1 | 3.27
COc1cccc(-n2nc(C)c3c(N/N=C(\C)c4ccncc4)ncnc32)c1 | -0.13
O=C1Nc2ccccc2/C1=C/Nc1ccc2[nH]c(=O)[nH]c2c1 | 0.57
CCOc1nccc2c1nc(-c1nonc1N)n2CC | 0.94

Give measured inhibition for every item shown.
1. NS(=O)(=O)c1ccc(Nc2cc(-c3cccc(O)c3)n[nH]2)cc1
2. c1ccc(Cc2nc3ccc(Nc4ncnc5ccccc45)cc3[nH]2)cc1
3. NS(=O)(=O)c1cccc(-c2cc3ccncc3cc2OCc2ccccc2)c1

[3.84, 1.83, 0.96]
